Target: Sodium/potassium-transporting ATPase
Test: 35% displacement of the specific [3H]-ouabain binding from the dog kidney Na+/K+ ATPase
Assay type: protein-complex assay, Canis lupus familiaris
pIC50: −log10 of the molar value.
Assay Metric: pIC50

C[C@]12CC[C@H](c3ccccc3)C[C@@]1(O)CC[C@@H]2/C=N/N=C(N)N : < 4.00

## Task Looking for the measured pIC50 of CC(/C=N/N=C(N)N)=C\[C@H]1CC[C@]2(O)C[C@@H](C3CCCCC3)CC[C@]12C , can you help?
## Result < 4.00
